All values here come from ChEMBL document CHEMBL5131559.

assay: Oral bioavailability in Sprague-Dawley rat at 5 mg/kg by LC-MS/MS analysis; format: ADME, organism-based; conditions: in vivo
Returns TRUE if the recorded bioavailability is greater than or equal to 60%, and FALSE otherwise.

Please review the entries below; each comes with its answer.
Cc1nc(C)c([C@H](OC(C)(C)C)C(=O)O)c(N2CCC(C)(C)CC2)c1-c1ccc2c(c1)CCN(Cc1ccc(F)cc1F)C2 TRUE
Cc1cccc(Cl)c1CN1CCc2cc(-c3c(C)nc(C)c([C@H](OC(C)(C)C)C(=O)O)c3N3CCC(C)(C)CC3)ccc2C1 FALSE
Cc1nc(C)c([C@H](OC(C)(C)C)C(=O)O)c(N2CCC(C)(C)CC2)c1-c1ccc2c(c1)CCN(c1ncnc3c1cnn3C)C2 TRUE
Cc1nc(C)c([C@H](OC(C)(C)C)C(=O)O)c(N2CCC(C)(C)CC2)c1-c1ccc2c(c1)CCN(Cc1cccc(F)c1F)C2 FALSE
Cc1nc(C)c([C@H](OC(C)(C)C)C(=O)O)c(N2CCC(C)(C)CC2)c1-c1ccc2c(c1)CCN(c1ncnc3c1oc1ccccc13)C2 TRUE

Is bioavailability for Cc1nc(C)c([C@H](OC(C)(C)C)C(=O)O)c(N2CCC(C)(C)CC2)c1-c1ccc2c(c1)CCN(Cc1cccc(F)c1C)C2 at or above 60%?
TRUE

Evaluate Cc1cccc(F)c1CN1CCc2cc(-c3c(C)nc(C)c([C@H](OC(C)(C)C)C(=O)O)c3N3CCC(C)(C)CC3)ccc2C1 : bioavailability at minimum 60%?
TRUE
